Assay: Solubility of doxorubicin HCl in non-aqueous solvents
Type: physicochemical
Details: glycerol formal, pyrrolidinones, organic solvent or mixture, glycerol formal, 2-pyrrolidinone and 1-methyl-2-pyrrolidinone; read-out: solution concentration produced
Protocol: Doxorubicin HCl at room temperature has a solubility of less than 5 mg/ml in propylene glycol, 1,2-dihydroxybutane and 1,3-dihydroxypropane. […] Solubility of doxorubicin HCl can be increased to about 20 mg/ml in the above-mentioned solvents by addition of 5-10% (v/v) water.
Counter-ions that a name gives are not always drawn.
observable: solubility

INSERT INTO assay_data (molecule, observable, result) VALUES
  ('COc1cccc2c1C(=O)c1c(O)c3c(c(O)c1C2=O)C[C@@](O)(C(=O)CO)C[C@@H]3O[C@H]1C[C@H](N)[C@H](O)[C@H](C)O1 [Doxorubicin HCl, doxorubicin hydrochloride]', 'solubility', '≥ 5000 µg/mL');

###

Assay: Solubility of doxorubicin HCl in non-aqueous solvents
Assay type: physicochemical
Settings: glycols with 5-10% water, organic solvent or mixture, propylene glycol, 1,2-dihydroxybutane, 1,3-dihydroxypropane with addition of 5-10% (v/v) water; read-out: Solubility
Counter-ions that a name gives are not always drawn.
observable: solubility

INSERT INTO results (compound, result) VALUES
  ('COc1cccc2c1C(=O)c1c(O)c3c(c(O)c1C2=O)C[C@@](O)(C(=O)CO)C[C@@H]3O[C@H]1C[C@H](N)[C@H](O)[C@H](C)O1 [Doxorubicin HCl, doxorubicin hydrochloride]', '~20 mg/mL');

###

Test: Solubility of doxorubicin HCl in non-aqueous solvents
Assay type: physicochemical
Conditions: various organic solvents, organic solvent or mixture, with heating; polyethylene glycols, ethanol, benzyl alcohol, dimethylisosorbide, ethyl lactate, Solketol, Cremophors, Pluronics; read-out: Solubilities
Counter-ions that a name gives are not always drawn.
observable: solubility

INSERT INTO results (molecule, result) VALUES
  ('COc1cccc2c1C(=O)c1c(O)c3c(c(O)c1C2=O)C[C@@](O)(C(=O)CO)C[C@@H]3O[C@H]1C[C@H](N)[C@H](O)[C@H](C)O1 [Doxorubicin HCl, doxorubicin hydrochloride]', '< 5000 µg/mL');

###

Experiment: Solubility of doxorubicin HCl in non-aqueous solvents
Format: physicochemical
Conditions: propylene glycol, butanediol, propanediol, organic solvent or mixture, room temperature; in propylene glycol, 1,2-dihydroxybutane and 1,3-dihydroxypropane; read-out: solubility
Counter-ions that a name gives are not always drawn.
observable: solubility

INSERT INTO measurements (compound, result) VALUES
  ('COc1cccc2c1C(=O)c1c(O)c3c(c(O)c1C2=O)C[C@@](O)(C(=O)CO)C[C@@H]3O[C@H]1C[C@H](N)[C@H](O)[C@H](C)O1 [Doxorubicin HCl, doxorubicin hydrochloride]', '< 5000 µg/mL');
